Below, each of the molecules is paired with its reported IC50 value.
Tested on: A549
assay_method_text: Cytotoxicity against human A549 cells after 48 hrs by MTT assay
Type: cell-based
Give just the numeric value; µg/mL need not be written.

CC(=O)c1sc(N/N=C(\C)c2ccccn2)nc1C ... 50
CCOC(=O)c1sc(N/N=C(\C)c2ccccc2)nc1C ... 150
CCOC(=O)Cc1csc(N/N=C(\C)c2ccccn2)n1 ... 200

Give the observed IC50 of "CCOC(=O)c1sc(N/N=C(\C)c2ccccn2)nc1C" for A549.
140
